Give koff for every item shown.
STUDY_SYSTEM: T1, recombinant human IL-31 (hIL-31, BHK produced, A1277F, zcytor17lig CEE) (human, UniProt Q6EBC2 24-164)
T1 construct: also called recombinant hIL-31
T1 sequence: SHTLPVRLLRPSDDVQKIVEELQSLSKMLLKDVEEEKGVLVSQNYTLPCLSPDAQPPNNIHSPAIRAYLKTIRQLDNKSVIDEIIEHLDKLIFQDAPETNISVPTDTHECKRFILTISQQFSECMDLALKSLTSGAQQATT
EXPERIMENTAL_DETAILS: SPR (Biacore), mAb amine-coupled to CM5 chip, hIL-31 injected
Supply the numeric figure in s⁻¹, leaving out any unit text.

Which koff value is on record for humanized 292.12.3.1 construct clone 30 (12VH1-gly + HC(F29L, V78A, R94F) + LC(F71Y)) (antibody, human IgG4, V domains shown) VH: QVQLVQSGAEVKKPGASVKVSCKASGYTLTRYWMQWVRQAPGQGLEWMGAIYPGDGDTRYSQKFQGRVTMTRDTSISTAYMELSSLRSEDTAVYYCAFPDGYYAAPYGMDYWGQGTLVTVSS VL: DIQMTQSPSSLSASVGDRVTITCRASGNIHNYLAWYQQKPGKVPKLLIYNAKTLADGVPSRFSGSGSGTDYTLTISSLQPEDVATYYCQHFWSTPWTFGQGTKVEIKR ? 9e-05

I'd like to know its koff. The binder in question is humanized 292.12.3.1 construct clone 16 (12VH1-gly + HC(fback) + LC(G66R, G68E, D70Q, T72S)) (antibody, human IgG4, V domains shown) VH: QVQLVQSGAEVKKPGASVKVSCKASGYTLTRYWMQWVRQAPGQGLEWMGAIYPGDGDTRYSQKFQGRVTLTADKSISTAYMELSSLRSEDTAVYYCAFPDGYYAAPYGMDYWGQGTLVTVSS VL: DIQMTQSPSSLSASVGDRVTITCRASGNIHNYLAWYQQKPGKVPKLLIYNAKTLADGVPSRFSGSRSETQFSLTISSLQPEDVATYYCQHFWSTPWTFGQGTKVEIKR 7.5e-05

Cited source: patent US20200262913A1
